These data points were gathered from paper PMC7205207.

# TGT: T1, human PDGF-BB (platelet derived growth factor B homodimer) (human, UniProt P01127)
# T1 construct: Platelet derived growth factor B, human, homodimer, bought from PeproTech; the printed catalogue number may stand for 100-14B; source: bought: PeproTech, Catalog 100-148
# TEST_DESCRIPTION: SPR; Biacore T200, off-rate screen; antibody captured (~70 to 100 RU) by anti-human IgG amine-coupled to a CM5 chip; human PDGF-BB injected at a single 2.5 nM for 170 s, dissociation 300 s; HBS-EP+ N (10 mM HEPES, 500 mM NaCl, 3 mM EDTA, 0.05% Tween20, pH 7.4); 25 C
# EXPERIMENTAL_PARAMETERS: both partners purified
Measured koff accompanies every entry in the list below.
Write the answer as a number in s⁻¹, unit excluded.

# annotated cases, reported koff shown
BINDER: R1-012 (antibody, V domains shown, Kabat position; only the variable regions are written; source: HEK293, transient, purified from conditioned medium (protein A, TMAE, HIC)) VH: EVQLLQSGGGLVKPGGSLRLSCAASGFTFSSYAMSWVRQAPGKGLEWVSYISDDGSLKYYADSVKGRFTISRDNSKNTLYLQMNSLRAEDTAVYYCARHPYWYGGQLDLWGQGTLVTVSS VL: SYVLTQPPSVSVSPGQTASITCSGDSLGSYFVHWYQQKPGQSPVLVIYDDSNRPSGIPERFSGSNSGNTATLTISGTQAMDEADYYCSAFTHNSDVFGGGTKLTVL
koff, s⁻¹: 0.000304
--
BINDER: R2-001 (antibody, V domains shown, R2-001_HC: as the VH of m17 (R1-016), on which R2-001 was built; R2-001_LC: as the VL of m17 (R1-016) with FW1 changed to that of IGLV3-21*01; only the variable regions are written; also called round 2 parental R2-001; R2-001_HC with R2-001_LC; source: HEK293, transient, purified from conditioned medium (protein A, TMAE, HIC)) VH: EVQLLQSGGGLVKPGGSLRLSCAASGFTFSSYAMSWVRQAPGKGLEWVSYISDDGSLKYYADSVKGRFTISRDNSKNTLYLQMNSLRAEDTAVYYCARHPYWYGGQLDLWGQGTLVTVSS VL: SYVLTQPPSVSVAPGKTARITCSGDSLGSYFVHWYQQKPGQSPVLVIYDDSKRPSGIPERFSGSNSGNTATLTISGTQAMDEADYYCSAFTHNSDVFGGGTKLTVL
koff, s⁻¹: 0.000417

Moving on to the next binder.
The binder listed as R1-004 (antibody, V domains shown, VL of AB-001 (AB-001_LC); only the variable regions are written; source: HEK293, transient, purified from conditioned medium (protein A, TMAE, HIC)) VH: EVQLLESGGGLVQPGGSLRLSCRASGFTFSSYAMSWVRQAPGKGLEWVSYISDDGSLKYYADSVKGRFTISRDNSKNTLYLQMNSLRAEDTAVYYCARHPYWYGGQLDLWGQGTLVTVSS VL: SYELTQPPSVSVSPGQTASITCSGDSLGSYFVHWYQQKPGQSPVLVIYDDSNRPSGIPERFSGSNSGNTATLTISGTQAMDEADYYCSAFTHNSDVFGGGTKLTVL shows koff equal to 0.000258
